System: K4 kissing-loop RNA reporter;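 also: bound reporter read as fluorescence of individual clusters on recovered sequencing chips by microscopy, with normalized cluster intensities fitted with a binding model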
Test: apparent KD of K4 kissing-loop reporter; higher = weaker reporter binding
Details: Eterna round: R107; input ligand: FMN 200 uM
OBSERVABLE: apparent KD of K4 kissing-loop reporter (µM)
Expressed in µM, but write only the number.

Answered cases to consult:
CUAUGGAAACAUAGGAGUCGGGAAACCGAUACCAGUAUGGAAACAUACCCUUGGCAGCGGAAUGAUUCAACGGAGUGAUGUUCCG [Theophylline A K4 19] : 0.458
CCGUAGCGAUCGGCCGCCACUCAAGAUCGCCAACUAUCACACGGUUCUCCCGAGUGAUGUUCUAGGAGGACCGGGAUUGUUGCUC [theeternabot_exclusion_KL_Trp_B_13] : 0.421

Observed apparent KD of K4 kissing-loop reporter on K4 kissing-loop RNA reporter for UGUCAUUGGUCGGCCGCCACUUCAAGGUCAAAGACCAAAGAGUGAUGUUCUUAGACGAAAGUCAGAAGGACCGGGACCGAUGACU [TrypBS 9 #SwitchBubble #K4Middle] , please.
0.318

Input ACCUAGUACGUAGGAUAUCGAACAUCAUUUAGUGAGAUCGAGUGAUGUUCGAUCACGUCUUCAGUUCGAGAAGGACGUACUAGGA [FMN B SS t4]
0.335

Input AGUGAAGUUAGUGAUGUGUGAGUUUGGGAAGGAGCGCCGAGAACGGCAGGUAGGUCGCCCAGUGAUGUUGGUGUAAAGAUGAGAG [whbob_Ex_Arginine_A_2t121]
0.275

Input GUAACCUUGCUCGAGUGAUGUUCGAGCGAAGGAGCGCGAGAAAUCGCAGGUAGGUCGCGCUCGAAAUUUGAGCGAACAAUUAUUA [Arg A Ex t2]
0.128

Input AAGGGCUAGGCGGCCGCCACUGGUCGUGAACACAUACGAGCCAGUGAUGUUGGUAUUGUGUGCGGCAGGACCGGGCCUAGCCGAA [Exclusion - Tryptophan B (Freestyle 24)]
0.343

###

# apparent KD of MS2 coat protein values compiled below
Test system: MS2 coat protein
Assay: apparent KD of MS2 coat protein, switch ON state; designed switch direction (-1 OFF switch, 1 ON switch): -1; higher = weaker reporter binding
Conditions: FMN input: 0 or 200 uM; Eterna round: R93 (includes R88 designs)
Expressed in nM, but write only the number.

Answered cases to consult:
AAGAAGUGAGGAUAUGUCUGUGCGAAAAAAAAAAAGUGCAGACAGAAGGCACAUGAGGAUCACCCAUGUCAAAA [Florian Witold Znaniecki] : 39.4
GAAAAGAAAGGAUAUAAAACAGAGGAUAUACAUAAAUAAAAACAUGAGGAUCACCCAUGUAGAAGGCUGAAAAG [Meechl Ex2 R2 m2] : 33.2
AUAAAACAUGAGGAUCACCCAUGUGAGGAUAUGCGAAAAAAAAAAAGAAAAAAAAAAAGCAGAAGGCACAAUAA [Amethyst 43] : 32.8
GUGUACAGAGGAUAUACAUGAGCAUGGAAACAUGCAGGAUCACAUGAGGAUCACCCAUGUAGAAGGCUGUACAC [Ex2: 732] : 35.1
AAGAAACAUGAGGAUCACCCAUGUAAGGAUAUCUAAAAGAAAAGAAAAGAAAGAAGAAGGAGAAGGUACAAAGG [Sehertawy Intef I] : 26.1
AAGAAACAUGAGGAUCACCCAUGUGAGGAUAUUGAAAAGAAAAGAAAAGAAAGAAGAACAAGAAGGCACAAAGG [Merenhor] : 39.4

Report apparent KD of MS2 coat protein for AACAGGACAGGAUAUACAUGAGGAUCACCCAUGUAGGAAACAAGCAGAGUACCAAAAAGUAGAAGGGUCAUGGA [Ruby 30] please.
38.8

Input AAAAAGUUAGGAUAUACAUGAGGAUCACCCAUGUACAUAUAUGGAGAAUAUAGCAGUAGUAGAAGGGACAAAAA [EX2 Malc#13]
26.9

Input AAAAAGUGAGGAUAUACAUGAGGAUCACCCAUGUGUAUAAAAAAAUACACAAAAGAAAGUAGAAGGCACUAAAG [Mat - Exclusion 3 - Mayanna mod - D109]
28.4
